Compiled notes: published Ki values involving UniProt O60674.

Compound	Subject Of Test	Reported
C[C@H](Nc1cc(N2CCCC2)nc(-c2c[nH]c3ncncc23)n1)C(=O)NCC(F)(F)F	UniProt O60674	> 5000 nM
C=C(c1ncnc2[nH]ccc12)C1CCCN(C(=O)OC(C)(C)C)C1 (centres unmarked)	UniProt O60674	500 to 5000 nM
Oc1c(Cl)cc(C2Nc3ccccc3-c3ccnc4[nH]cc2c34)cc1Cl (centres unmarked)	UniProt O60674	< 250 nM
CCCN(C(=O)CC(C)C)c1nc(-c2ncnc3[nH]ccc23)cs1	UniProt O60674	< 100 nM
N#Cc1cccc(F)c1-c1cc(-n2ccc(N3CCCC(CO)C3)n2)c2c(n1)CNC2=O (centres unmarked)	UniProt O60674	10 to 100 nM
O=C(c1cc(-c2ncnc3[nH]ccc23)c[nH]1)N1CCCC1C(F)(F)F (centres unmarked)	UniProt O60674	< 100 nM
CC(C)CN(CCC#N)C(=O)c1cc(-c2ncnc3[nH]cc(Cl)c23)c[nH]1	UniProt O60674	< 100 nM

// below: Ki requested for another compound
Short answer on UniProt O60674 for `O=C1NCc2nc(-c3c(F)cccc3F)cc(-n3ccc(N4CCOCC4)n3)c21` , Ki: 100 to 1000 nM

---

# Ki against Tyrosine-protein kinase JAK2 (Homo sapiens), merged from multiple literature sources

# count of solved cases: 5
Compound	Ki
C[C@@H]1CC[C@@H](C)N1C(=O)c1cc(-c2ncnc3[nH]cc(Cl)c23)c[nH]1	< 100 nM
CC1(C)[C@@H](O)CCN1c1ccn(-c2cc(-c3c(F)cccc3C#N)nc3c2C(=O)NC3)n1	10 to 100 nM
Fc1ccc(F)c(C2Nc3ccccc3-c3ncnc4[nH]cc2c34)c1F (centres unmarked)	< 250 nM
O=C(c1cc(-c2ncnc3[nH]ccc23)c[nH]1)N1CCCC(O)C1 (centres unmarked)	100 to 500 nM
CN(C)[C@H]1CC[C@H](Nc2ccn(-c3cc(-c4c(F)cccc4C#N)nc4c3C(=O)NC4)n2)CC1	10 to 100 nM

Here `N#CCC(=O)N1CC=C(c2ncnc3[nH]ccc23)CC1` was tested on Tyrosine-protein kinase JAK2 (Homo sapiens), and its Ki came to < 500 nM

Item `CC(C)CCn1cc(-c2ncnc3[nH]ccc23)cn1` ; assay system Tyrosine-protein kinase JAK2 (Homo sapiens); Ki reported as < 100 nM

Form field Ki for item `N#CCCN(CCC#N)C(=O)c1cc(-c2ncnc3[nH]ccc23)c[nH]1` on Tyrosine-protein kinase JAK2 (Homo sapiens): < 100 nM

`COc1nc(N[C@@H](C)c2ccc(F)cc2F)cc(-c2c(N)nn3cccnc23)n1` on Tyrosine-protein kinase JAK2 (Homo sapiens) gives Ki = < 10 nM

Recorded Ki for `COC(=O)[C@@H]1CC[C@H](C(=O)Nc2nc(-c3ncnc4[nH]ccc34)cs2)C1` on Tyrosine-protein kinase JAK2 (Homo sapiens) was < 100 nM

---

Kindly find below Ki information for Tyrosine-protein kinase JAK2 (Homo sapiens) taken from the literature.

Compound	Ki
N#Cc1cccc(F)c1-c1cc(-n2ccc(N3CCCC(N)C3)n2)c2c(n1)CNC2=O (centres unmarked)	10 to 100 nM
CCC#CCOc1nc(N[C@@H](C)c2ccc(F)cc2)cc(-c2c(N)nn3cccnc23)n1	10 to 100 nM
C[C@@]1(O)CN(c2ccn(-c3cc(-c4c(F)cccc4C#N)nc4c3C(=O)NC4)n2)C[C@@](C)(O)C1	10 to 100 nM
COc1ccc(C2Nc3ccccc3-c3ccnc4[nH]cc2c34)c(Cl)c1O (centres unmarked)	< 250 nM
Cc1cc(Nc2cc(N3CC(F)(C4CC4)C3)nc(Sc3ccc(NC(=O)CC(F)(F)F)nc3)n2)[nH]n1	28 nM
CCC[C@H](Nc1cc(-c2c(N)nn3cccnc23)ncn1)c1ccc(F)c(F)c1	< 10 nM
O=C(CCC(=O)C1CC1)Nc1nc(-c2ncnc3[nH]ccc23)cs1	< 100 nM

Now consider the entry below.
Short answer on Tyrosine-protein kinase JAK2 (Homo sapiens) for `N#Cc1cccc(F)c1-c1cc(-n2ccc(N3CC[C@H](O)[C@H](O)C3)n2)c2c(n1)CNC2=O` , Ki: 0.1 to 10 nM
